Catalogue of compounds with associated EC50
- tgt: human muscarinic M2 receptor (Homo sapiens, UniProt P08172)
- Sequence (P08172 whole entry): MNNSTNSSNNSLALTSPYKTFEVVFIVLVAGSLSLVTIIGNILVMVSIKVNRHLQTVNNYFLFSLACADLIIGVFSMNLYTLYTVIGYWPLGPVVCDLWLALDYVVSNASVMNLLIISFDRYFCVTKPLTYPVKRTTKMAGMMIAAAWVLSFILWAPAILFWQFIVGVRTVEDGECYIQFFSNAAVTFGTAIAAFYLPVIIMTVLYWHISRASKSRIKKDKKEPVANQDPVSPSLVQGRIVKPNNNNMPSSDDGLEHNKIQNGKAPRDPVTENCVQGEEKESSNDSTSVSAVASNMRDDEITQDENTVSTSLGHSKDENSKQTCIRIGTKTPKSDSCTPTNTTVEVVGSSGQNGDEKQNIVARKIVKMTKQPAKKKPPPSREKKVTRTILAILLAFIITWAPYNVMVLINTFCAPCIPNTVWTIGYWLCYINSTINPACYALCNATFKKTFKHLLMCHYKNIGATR
- testDescription: Alphascreen Surefire phospho-ERK1/2 functional assay, M2
- Format: cell-based
- conditionNotes: CHO cells stably expressing human M2, read-out: pEC50 M2 (converted)

Solved cases below.
{"compound": "CCOC(=O)N1C2CCC1CC(N1CCC3(CC1)CC(=O)NC3CC)C2 (single isomer, unassigned) [Example 2-8 Isomer 1]", "EC50": "> 20 µM"}
{"compound": "COC(=O)N1CC2CC(N3CCC4(CC3)CNC(=O)C4)CC1C2 (single isomer, unassigned) [Example 6-1 Isomer 2]", "EC50": "> 20 µM"}

Req: Lab note: need EC50 for [2H]C([2H])([2H])COC(=O)N1C2CCC1CC(N1CCC3(CC1)CNC(=O)C3)C2 (single isomer, unassigned) [Example 2-31 Isomer 2] on human muscarinic M2 receptor (Homo sapiens, UniProt P08172), anyone have it?
Resp: > 20 µM

* * *

- tgt: human muscarinic M4 receptor (Homo sapiens, UniProt P08173)
- Construct: expressed in transfected cells
- Sequence (P08173 whole entry): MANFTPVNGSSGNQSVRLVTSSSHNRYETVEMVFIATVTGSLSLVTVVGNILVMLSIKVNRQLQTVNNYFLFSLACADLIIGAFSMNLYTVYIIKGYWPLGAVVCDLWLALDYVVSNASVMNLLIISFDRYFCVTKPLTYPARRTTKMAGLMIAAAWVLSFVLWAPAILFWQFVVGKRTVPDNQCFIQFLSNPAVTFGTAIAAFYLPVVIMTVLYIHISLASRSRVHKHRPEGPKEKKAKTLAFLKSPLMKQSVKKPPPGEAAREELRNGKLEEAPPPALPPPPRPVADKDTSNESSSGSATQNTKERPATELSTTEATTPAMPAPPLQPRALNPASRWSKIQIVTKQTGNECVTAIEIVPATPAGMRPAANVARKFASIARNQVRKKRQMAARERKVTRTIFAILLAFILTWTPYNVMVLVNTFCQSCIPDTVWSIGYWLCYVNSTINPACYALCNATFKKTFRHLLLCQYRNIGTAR
- testDescription: Alphascreen Surefire phospho-ERK1/2 functional assay, M4
- Format: cell-based
- conditionNotes: CHO cells stably expressing human M4, read-out: pEC50 M4 (converted)
readoutLabel: EC50

Solved cases below.
{"compound": "CCSC(=O)N1C2CCC1CC(N1CCC3(CC1)CNC(=O)C3)C2 (single isomer, unassigned) [Example 2-35 Isomer 1]", "EC50": "> 20000 nM"}
{"compound": "[2H]C([2H])([2H])COC(=O)N1C2CCC1CC(N1CCC3(CC1)CNC(=O)C3)C2 (single isomer, unassigned) [Example 2-31 Isomer 1]", "EC50": "251 nM"}
{"compound": "CCOC(=O)N1C2CCC1CC(N1CCC3(CC1)OC(=O)NC3(C)C)C2 (single isomer, unassigned) [Example 2-18 Isomer 1]", "EC50": "> 20000 nM"}
{"compound": "CCOC(=O)N1C2CCC1CC(N1CCC3(CC1)CC(=O)NC3CC)C2 (single isomer, unassigned) [Example 2-8 Isomer 1]", "EC50": "> 20000 nM"}
{"compound": "CCOC(=O)N1C2CCC1CC(N1CCCC3(CC1)CNC(=O)O3)C2 (single isomer, unassigned) [Example 9-2 Isomer 2]", "EC50": "> 20000 nM"}

Req: For O=C1CC2(CCN(C3CC4CCC(C3)N4C(=O)OCCF)CC2)CN1 (single isomer, unassigned) [Example 2-3 Isomer 1] , what is its reported EC50?
Resp: 2000 nM

Req: For CCOC(=O)N1C2CCC1C(F)C(N1CCC3(CC1)CNC(=O)C3)C2 (single isomer, unassigned) [Example 2-11 Isomer 1] , what is its reported EC50?
Resp: 1000 nM

Req: For [2H]C([2H])([2H])C([2H])([2H])OC(=O)N1C2CCC1CC(N1CCC3(CC1)CNC(=O)C3)C2 (single isomer, unassigned) [Example 2-32 Isomer 2] , what is its reported EC50?
Resp: 50.1 nM

Req: For CCOC(=O)N1C2CCC1CC(N1CCC3(CC1)CC(=O)N(C(C)C)C3)C2 (single isomer, unassigned) [Example 2-26 Isomer 2] , what is its reported EC50?
Resp: 631 nM

Req: For COC(=O)N1CC2CC(N3CCC4(CC3)CNC(=O)C4)CC1C2 (single isomer, unassigned) [Example 6-1 Isomer 1] , what is its reported EC50?
Resp: > 20000 nM

Req: For CCCN1CC2(CCN(C3CC4CCC(C3)N4C(=O)OCC)CC2)CC1=O (single isomer, unassigned) [Example 2-25 Isomer 2] , what is its reported EC50?
Resp: 251 nM

Req: For CCOC(=O)N1C2CCC1CC(N1CCCC3(CC1)CNC(=O)O3)C2 (single isomer, unassigned) [Example 9-2 Isomer 1] , what is its reported EC50?
Resp: > 20000 nM

Req: For CCOC(=O)N1C2CCC1CC(N1CCC3(CC1)OC(=O)NC3C(C)C)C2 (single isomer, unassigned) [Example 2-17 Isomer 1] , what is its reported EC50?
Resp: 20 nM

* * *

Catalogue of molecules with associated EC50
- tgt: human muscarinic M4 receptor (Homo sapiens)
- Construct: expressed in transfected cells
- testDescription: Alphascreen Surefire phospho-ERK1/2 functional assay, M4
- Type: cell-based
- conditionNotes: CHO cells stably expressing human M4, read-out: pEC50 M4 (converted)
Give the quantity in nM, number only.

{"molecule": "C#CCOC(=O)N1C2CCCC1CC(N1CCC3(CC1)CNC(=O)C3)C2 (single isomer, unassigned) [Example 5-2 Isomer 1]", "testValue": 79.4}
{"molecule": "CCOC(=O)N1CC2CC(N3CCC4(CC3)CNC(=O)C4)CC1C2 (single isomer, unassigned) [Example 6-2 Isomer 2]", "testValue": 3.98}
{"molecule": "CCOC(=O)N1C2CCC1CC(N1CCC3(CC1)OC(=O)NC3CC)C2 (single isomer, unassigned) [Example 2-16 Isomer 2]", "testValue": 200}
{"molecule": "CCOC(=O)N1C2CCC1C(F)C(N1CCC3(CC1)CNC(=O)O3)C2 (single isomer, unassigned) [Example 2-19 Isomer 2]", "testValue": 3980}
{"molecule": "CCCC1NC(=O)CC12CCN(C1CC3CCC(C1)N3C(=O)OCC)CC2 (single isomer, unassigned) [Example 2-9 Isomer 1]", "testValue": 2.51}
{"molecule": "CC(C)OC(=O)N1C2CCC1CC(N1CCC3(CC1)CNC(=O)C3)C2 (single isomer, unassigned) [Example 2-33 Isomer 1]", "testValue": 200}
{"molecule": "CCCC(=O)N1C2CCC1CC(N1CCC3(CC1)CNC(=O)C3)C2 (single isomer, unassigned) [Example 2-6 Isomer 2]", "testValue": 15800}
{"molecule": "CCOC(=O)N1C2CCC1CC(N1CCCC3(CC1)CNC(=O)O3)C2 (single isomer, unassigned) [Example 9-2 Isomer 4]", "testValue": 5.01}

Req: For [2H]C([2H])(C)OC(=O)N1C2CCC1CC(N1CCC3(CC1)CNC(=O)C3)C2 (single isomer, unassigned) [Example 2-30 Isomer 1] , what is its reported EC50?
Resp: 200

Req: For CCOC(=O)N1CC2CC(N3CCC4(CC3)CNC(=O)O4)CC1C2 (single isomer, unassigned) [Example 6-3 Isomer 2] , what is its reported EC50?
Resp: 39.8

Req: For CCOC(=O)N1C2CCC1CC(N1CCC3(CC1)CC(=O)N(CC)C3)C2 (single isomer, unassigned) [Example 2-13 Isomer 2] , what is its reported EC50?
Resp: 100

* * *

Catalogue of molecules with associated EC50
- tgt: human muscarinic M2 receptor (Homo sapiens, UniProt P08172)
- testDescription: Alphascreen Surefire phospho-ERK1/2 functional assay, M2
- Format: cell-based
- conditionNotes: CHO cells stably expressing human M2, read-out: pEC50 M2 (converted)

Solved cases below.
{"molecule": "CCCN1CC2(CCN(C3CC4CCC(C3)N4C(=O)OCC)CC2)CC1=O (single isomer, unassigned) [Example 2-25 Isomer 2]", "tgt": "human muscarinic M2 receptor (Homo sapiens, UniProt P08172)", "EC50": "> 20 µM"}
{"molecule": "C#CCOC(=O)N1C2CCCC1CC(N1CCC3(CC1)CNC(=O)C3)C2 (single isomer, unassigned) [Example 5-2 Isomer 1]", "tgt": "human muscarinic M2 receptor (Homo sapiens, UniProt P08172)", "EC50": "> 20 µM"}

Here is the next item to consider.
Req: For CCOC(=O)N1C2CCC1CC(N1CCC3(CC1)CC(=O)N(CC)C3)C2 (single isomer, unassigned) [Example 2-13 Isomer 2] , what is its reported EC50?
Resp: > 20 µM

* * *

Catalogue of compounds with associated Emax
- tgt: UniProt:P11229
- Sequence (P11229 1-460): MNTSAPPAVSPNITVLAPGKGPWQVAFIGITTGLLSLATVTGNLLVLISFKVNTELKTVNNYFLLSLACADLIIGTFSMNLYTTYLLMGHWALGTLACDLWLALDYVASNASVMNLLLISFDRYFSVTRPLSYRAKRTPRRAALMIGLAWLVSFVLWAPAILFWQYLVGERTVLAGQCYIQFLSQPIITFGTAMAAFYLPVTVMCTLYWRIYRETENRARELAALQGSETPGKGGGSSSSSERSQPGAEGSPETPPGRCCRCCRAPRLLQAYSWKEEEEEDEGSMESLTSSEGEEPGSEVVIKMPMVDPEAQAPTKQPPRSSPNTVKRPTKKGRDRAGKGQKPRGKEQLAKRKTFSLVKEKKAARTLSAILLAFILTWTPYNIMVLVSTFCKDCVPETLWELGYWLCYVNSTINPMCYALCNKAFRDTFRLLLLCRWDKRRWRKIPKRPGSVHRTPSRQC
- testDescription: Alphascreen Surefire phospho-ERK1/2 functional assay, M1
- Assay type: cell-based
- conditionNotes: CHO, read-out: % Emax cf. ACh, M1, CHO cells stably expressing human M1, relative to ACh
Write the figure, then the unit, nothing else.

Solved cases below.
{"compound": "CCOC(=O)N1C2CCC1CC(N1CCC3(CC1)CC(=O)N(CC)C3)C2 (single isomer, unassigned) [Example 2-13 Isomer 2]", "Emax": "76%"}
{"compound": "CCOC(=O)N1CC2CCC1CC2N1CCC2(CC1)CNC(=O)O2 (single isomer, unassigned) [Example 3-2 Isomer 1]", "Emax": "111%"}

Req: Lab note: need Emax for CCOC(=O)N1C2CCC1C(F)C(N1CCC3(CC1)CNC(=O)O3)C2 (single isomer, unassigned) [Example 2-19 Isomer 2] on UniProt:P11229, anyone have it?
Resp: 94%

Req: Lab note: need Emax for [2H]C([2H])([2H])C([2H])([2H])OC(=O)N1C2CCC1CC(N1CCC3(CC1)CNC(=O)C3)C2 (single isomer, unassigned) [Example 2-32 Isomer 1] on UniProt:P11229, anyone have it?
Resp: 92%

Req: Lab note: need Emax for CCCC1NC(=O)CC12CCN(C1CC3CCC(C1)N3C(=O)OCC)CC2 (single isomer, unassigned) [Example 2-9 Isomer 1] on UniProt:P11229, anyone have it?
Resp: 91%

Req: Lab note: need Emax for CCOC(=O)N1[C@@H]2CC[C@H]1CC(N1CCC3(CC1)OC(=O)NC3Cc1ccccn1)C2 (mixture of isomers) on UniProt:P11229, anyone have it?
Resp: 86%
